Tested on: Alopecurus myosuroides (ALOMY)
Assay: Pre-emergence herbicidal activity, glasshouse pot test
Type: in vivo
Conditions: Alopecurus myosuroides, 312 h; Rate 250 g/ha; pre-emergence spray; evaluated after 13 days; read-out: Pre-emergence activity ALOMY (100=total damage to plant; 0=no damage to plant)
# class assignment by measured pest or weed control at 250 g/ha: low end: < 50%; middle: ≥ 50% and < 80%; high end: ≥ 80%

Solved entries:
{"compound": "CCc1ccc(Oc2nc3ccc(Cl)cc3o2)cc1C1=C(O)C(C)(C)OC(C)(C)C1=O [Example A-188]", "answer label": "high end"}
{"compound": "CCc1ccc(Oc2ccc(Br)cc2F)cc1C1=C(O)CC(C)(C)CC1=O [Example A-49]", "answer label": "high end"}
{"compound": "CCc1ccc(Oc2ccc(OC(F)(F)F)cc2)cc1C1=C(O)[C@H]2CC[C@H](C2)C1=O [Example A-248]", "answer label": "high end"}

Please let me know in which category the item CCc1ccc(Oc2ccc(Cl)c(F)c2)cc1C1=C(O)C(C)(C)OC(C)(C)C1=O [Example A-31] belongs.
high end

Please let me know in which category the item CCc1ccc(Oc2cnc3ccccc3n2)cc1C1=C(O)C(C)(C)OC(C)(C)C1=O [Example A-161] belongs.
middle

Please let me know in which category the item CCc1ccc(Oc2ncc(Cl)cc2F)cc1C1=C(O)CC2(CCOCC2)CC1=O [Example A-274] belongs.
high end

The measured values listed here are drawn from patent US8865623B2.
